Test system: MS2 coat protein
Assay: apparent KD of MS2 coat protein, switch OFF state (with FMN for OFF switches, without FMN for ON switches); designed switch direction (-1 OFF switch, 1 ON switch): -1; higher = weaker reporter binding
Conditions: FMN input: 0 or 200 uM; Eterna round: R93 (includes R88 designs)
Label Y for high-side apparent KD of MS2 coat protein (at or above 40 nM) and N for low-side apparent KD of MS2 coat protein (below it).

As a guide, the following entries are already answered.
- Polymer sequence: "AAAAAACAUGAGGAUCACCCAUGUGAGGAUAUGCAAAACCCAAAUAAAAAGAGAAAAAGCAGAAGGCACAACAA [wbt round 1 mod 3]"
  Cat: "N"
- Polymer sequence: "AAAAAACAUGAGGAUCACCCAUGUAAGGAUAUACCUAAAAAAAAAAAAAAAAAAAAUGGUAGAAGGUACAAAAA [excalibur12]"
  Cat: "Y"
- Polymer sequence: "AGAAAACAUGAGGAUCACCCAUGUGAGGAUAUGUAAAAGAAAAGAAAAGAAAGAAGAAACAGAAGGCACAAGAA [Nynetjer]"
  Cat: "Y"
- Polymer sequence: "AAGAAGAUAGGAUAUACAAAAUAAAAGAAAAGAAAGAAAGAACAUGAGGAUCACCCAUGUAGAAGGAUCAAGAA [Sehetepibre Amenemhat I]"
  Cat: "N"

Please turn your attention to the following entry.
Ask: I'd appreciate it if you could say whether AAAAACGCAGGAUAUACAUGAGGAUCACCCAUGUAAAAAAAAAAAAAGGGAAAAAAAAGUAGAAGGGCGAAAAA [Menkhaure Snaaib] has apparent KD of MS2 coat protein at least equal to 40 nM.
Reply: Y
